Sourced from PubChem BioAssay (NCI)

- Tested on: NCI/ADR-RES ovarian
- test_summary: NCI-60 one-dose screen, 48 h
- condition_description: 10 µM unless noted
- Procedure: Growth inhibition of the NCI/ADR-RES human […] tumor cell line is measured as a screen for anti-cancer activity. Cells are grown in 96 well plates and exposed to the test compound for 48 hours. Compounds are tested at a single concentration, which is 10^-5 M for most compounds. The reported endpoint is percent growth (GI% or GIPRCNT), where numbers from 0 - 100% represent growth inhibition, and numbers from -100% - 0 represent cell death. For example, a value of 40 represents 60% growth inhibition. […]
The panel holds about 83,000 compounds, 20% with a hit somewhere; the sample as a whole holds those more often. Calls of active or inactive are those of the source. The calls were made as follows: active = growth percent below 10; inactive = the rest.
Labels: active, inactive

- smiles_representation: "C#CCOc1cccc(-c2ncc3cc(NC(=O)CCl)ccc3n2)c1"
  target_under_test: "NCI/ADR-RES ovarian"
  assigned_label: "active"
- smiles_representation: "COc1ccccc1NC(=O)c1ccc(/C=C/C(=O)c2nccn2C)cc1"
  target_under_test: "NCI/ADR-RES ovarian"
  assigned_label: "active"
- smiles_representation: "O=C1NC(=O)c2c1c1c3ccccc3[nH]c1c1oc3ccc(F)cc3c21"
  target_under_test: "NCI/ADR-RES ovarian"
  assigned_label: "inactive"
- smiles_representation: "CC(C)[C@@]12C[C@@H](OC(=O)COC(=O)c3ccccc3)[C@@](C)(O1)[C@@H]1CC[C@@H](C)[C@H]1[C@@H]2OC(=O)/C=C/c1ccccc1"
  target_under_test: "NCI/ADR-RES ovarian"
  assigned_label: "inactive"
- smiles_representation: "COC(=O)/C=C1/SC(=Nc2cccc(Cl)c2)N(CCc2c[nH]c3ccc(O)cc23)C1=O"
  target_under_test: "NCI/ADR-RES ovarian"
  assigned_label: "inactive"
- smiles_representation: "CCOC(=O)C1=C(C)N=C2SC=C(c3ccccc3)N2[C@H]1c1cn[nH]c1-c1ccc(Cl)cc1"
  target_under_test: "NCI/ADR-RES ovarian"
  assigned_label: "inactive"
- smiles_representation: "N=C(N)c1ccc(-c2ccc(-c3ccc(F)cc3)s2)s1"
  target_under_test: "NCI/ADR-RES ovarian"
  assigned_label: "active"
- smiles_representation: "CNC(=O)c1c(NC(=O)c2ccc(C(C)(C)C)cc2)sc2c(CN(C)C)c(O)ccc12"
  target_under_test: "NCI/ADR-RES ovarian"
  assigned_label: "inactive"
- smiles_representation: "O=C(Nc1ccccc1O)c1ccccc1Nc1ccnc(C(F)(F)F)c1"
  target_under_test: "NCI/ADR-RES ovarian"
  assigned_label: "inactive"

###

In this section, each of the molecules is paired with its reported growth.
- Tested on: NCI-H322M lung
- test_summary: NCI-60 one-dose screen, 48 h (100 = growth as untreated, 0 = no growth, -100 = all killed)
- condition_description: 10 µM unless noted
The panel holds about 83,000 compounds, 20% with a hit somewhere; the sample as a whole holds those more often.
measured_quantity: growth (%)

- molecule: "CC(/C=C1\\SC(=S)N(CC(=O)NC(Cc2c[nH]c3ccccc23)C(=O)O)C1=O)=C\\c1ccccc1 (centres undefined)"
  endpoint_result: 102
- molecule: "C[C@@H]1O[C@@H](O[C@@H]2C[C@H](c3ccc4c(c3O)C(=O)C3=C(C4=O)[C@@]4(O)C(=O)C[C@](C)(O)C[C@@]4(O)C=C3)O[C@H](C)[C@H]2O)C[C@H](O)[C@@H]1O"
  endpoint_result: 108
- molecule: "COc1ccccc1-n1c(-c2cc(O)ccc2C)cn2c3c(=O)[nH]c(=O)n(C)c3nc12"
  endpoint_result: 36
- molecule: "COc1cc(/C=C2\\C(=O)N(c3c(Cl)cccc3Cl)c3ccccc32)cc(OC)c1OCCCCCCn1c2ccccc2c(=O)c2ccccc21"
  endpoint_result: 95.7
- molecule: "COc1cc2c3c(c1O)-c1ccccc1[C@@H]1OC(=O)N(CC2)[C@H]31"
  endpoint_result: 113
- molecule: "COc1cc(C2C3=C(COC3=O)N(CCO)c3cc4c(cc32)OCCO4)cc(OC)c1OC (centres undefined)"
  endpoint_result: 36.9
- molecule: "O=C(Nc1cccc(NC(=O)C2CCCCC2)c1)c1ccccn1"
  endpoint_result: 89.2
- molecule: "CCOC(=O)C1=C(c2ccccc2)N=c2s/c(=C/c3ccc(Br)cc3)c(=O)n2C1c1ccc(O)cc1 (centres undefined)"
  endpoint_result: 91.9
- molecule: "O=C(Cn1nnc2ccccc21)Nc1ccc(-c2nc3ccccc3s2)cc1"
  endpoint_result: 103
- molecule: "CCN(CC)c1ccc(/C=N\\NC(=O)c2cccc(Nc3ccnc(C(F)(F)F)c3)c2)c(O)c1"
  endpoint_result: 33
- molecule: "Cc1ccc(-c2cc(C(=O)N3N=C(c4ccc(N)cc4)CC3c3ccc(Cl)cc3)c3ccccc3n2)cc1 (centres undefined)"
  endpoint_result: 48.3
- molecule: "CCCCCCCC/C=C\\CCCCCCCCOc1ccc(CC(=O)NCC[N+](C)(C)C)cc1"
  endpoint_result: 85.6
- molecule: "CN1CCN(Cc2ccc(NC(=O)c3cncc(C#Cc4cnn5ccccc45)c3)cc2C(F)(F)F)CC1"
  endpoint_result: -2.81
- molecule: "CC1(C)O[C@H]2OC3CCC(=O)CC3(O)[C@H]2O1 (some centres undefined)"
  endpoint_result: 101
- molecule: "O=C(Nc1ncc(Cc2ccccc2Cl)s1)c1cccs1"
  endpoint_result: 78
- molecule: "CCN(CC)CCCC(C)Nc1ccc2cc(OC)ccc2n1 (centres undefined)"
  endpoint_result: 94.7
- molecule: "O=C1Nc2ccccc2C2c3cccn3-c3ccccc3N12 (centres undefined)"
  endpoint_result: 83
- molecule: "CCNCc1ccc(O)c2ncccc12"
  endpoint_result: 38
- molecule: "COc1ccc2nc3ccccc3c(NCc3ccc(F)cc3)c2c1"
  endpoint_result: 22.6
